Hey, just so you know, these numbers are from paper PMC11003488.

- Tested on: HOP-92
- ASSAY PROCEDURE: NCI-60 SRB growth inhibition, one-dose and five-dose
- Format: cell-based
- SETTINGS: Homo sapiens, HOP-92, read-out: percent growth inhibition
PARAMETER: inhibition at 10 µM (%)
Note: unit % is implicit; provide only the numeric part.

Example cases with answers are listed next.
O=C(/C=C/c1cccnc1)c1cccc(NCc2csc3ccccc23)c1    39.4
CC(=O)Nc1ccc(CNc2cccc(C(=O)/C=C/c3c[nH]cn3)c2)cc1    12.3
CC(=O)Nc1ccc(/C=C/C(=O)c2cccc(NCc3ccc(CO)cc3)c2)cc1    34.6
O=C(/C=C/c1c[nH]cn1)c1cccc(NCc2ccc(CO)cc2)c1    22.2
O=C(/C=C/c1c[nH]cn1)c1cccc(NCc2ccc3oc(=O)ccc3c2)c1    25.8
CC(=O)Nc1ccc(/C=C/C(=O)c2cccc(NCc3csc4ccccc34)c2)cc1    12.3
COc1ccc(CNc2cccc(C(=O)/C=C/c3cccnc3)c2)cc1OC    36.8
CC(=O)Nc1ccc(/C=C/C(=O)c2cccc(NCc3ccc(NC(C)=O)cc3)c2)cc1    26.9

# input molecule: COc1ccc(CNc2cccc(C(=O)/C=C/c3ccc(NC(C)=O)cc3)c2)cc1OC ; wanted: its inhibition at 10 µM
65.8

----------
- Tested on: SK-MEL-5
- ASSAY PROCEDURE: NCI-60 SRB growth inhibition, one-dose and five-dose
- Type: cell-based
- SETTINGS: Homo sapiens, SK-MEL-5, read-out: percent growth inhibition
Entry flag: YES if inhibition at 10 µM reaches 50%; NO if it does not.

COc1ccc(CNc2cccc(C(=O)/C=C/c3cccnc3)c2)cc1OC [Compound 5c]    YES
O=C(/C=C/c1cccnc1)c1cccc(NCc2csc3ccccc23)c1 [Compound 5d]    YES
CC(=O)Nc1ccc(/C=C/C(=O)c2cccc(NCc3csc4ccccc34)c2)cc1 [Compound 5i]    YES
CC(=O)Nc1ccc(/C=C/C(=O)c2cccc(NCc3ccc(NC(C)=O)cc3)c2)cc1 [Compound 5g]    YES
CC(=O)Nc1ccc(CNc2cccc(C(=O)/C=C/c3c[nH]cn3)c2)cc1 [Compound 5l]    NO

Hello, I need to know if O=C(/C=C/c1c[nH]cn1)c1cccc(NCc2ccc(CO)cc2)c1 [Compound 5m] has measured inhibition at 10 µM not below 50%. Thanks!
NO

Check this compound for inhibition at 10 µM at or above 50%: Cc1ccc(CNc2cccc(C(=O)/C=C/c3cccnc3)c2)cc1 [Compound 5a]
YES

Say whether COc1ccc(CNc2cccc(C(=O)/C=C/c3ccc(NC(C)=O)cc3)c2)cc1OC [Compound 5h] shows inhibition at 10 µM of 50% or more.
YES

----------
Listed below: inhibition at 10 µM values for each entry.
- Test system: A498
- ASSAY PROCEDURE: NCI-60 SRB growth inhibition, one-dose and five-dose
- Assay type: cell-based
- SETTINGS: Homo sapiens, A498, read-out: percent growth inhibition
Field: numeric (%). Do not append units.

CC(=O)Nc1ccc(/C=C/C(=O)c2cccc(NCc3ccc(C)cc3)c2)cc1    -0.63
O=C(/C=C/c1cccnc1)c1cccc(NCc2csc3ccccc23)c1    36.5
CC(=O)Nc1ccc(CNc2cccc(C(=O)/C=C/c3cccnc3)c2)cc1    17.5

Entry CC(=O)Nc1ccc(/C=C/C(=O)c2cccc(NCc3ccc(NC(C)=O)cc3)c2)cc1 : reported inhibition at 10 µM = ?
16.6
